Each record here notes measured pIC50.
Tgt: cGAS (Homo sapiens, UniProt Q8N884)
Sequence (Q8N884 whole entry): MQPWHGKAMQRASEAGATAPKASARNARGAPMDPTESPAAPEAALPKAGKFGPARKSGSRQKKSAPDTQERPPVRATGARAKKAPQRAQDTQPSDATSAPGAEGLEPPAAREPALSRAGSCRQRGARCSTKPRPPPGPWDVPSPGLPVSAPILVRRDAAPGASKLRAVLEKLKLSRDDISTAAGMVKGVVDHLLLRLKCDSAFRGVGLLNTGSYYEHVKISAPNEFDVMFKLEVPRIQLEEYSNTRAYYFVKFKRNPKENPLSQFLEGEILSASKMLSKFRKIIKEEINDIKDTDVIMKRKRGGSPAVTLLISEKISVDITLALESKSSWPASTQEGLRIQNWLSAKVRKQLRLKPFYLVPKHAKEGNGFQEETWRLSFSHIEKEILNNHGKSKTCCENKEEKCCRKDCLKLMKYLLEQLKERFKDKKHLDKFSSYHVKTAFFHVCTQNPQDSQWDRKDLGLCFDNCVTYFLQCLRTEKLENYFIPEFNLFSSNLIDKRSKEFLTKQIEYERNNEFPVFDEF
Experiment description: In vitro inhibition assay of cGAS activity (cGAMP production, RapidFire mass spectrometry)
Type: biochemical
Set-up: Insert cDNA encoding full-length of human cGAS; His6; made in house; host or cells: E. coli BL21(DE3)
Condition context: 10 nM recombinant human cGAS, 60 nM 75-bp dsDNA, 50 μM ATP, 50 μM GTP, 3 hrs
pIC50: −log10 of the molar value.

Compound	pIC50
C[C@@H]1CNC(=O)Cc2c1[nH]c1c(Cl)c(Cl)cc(OCC#N)c21 (single isomer, unassigned) [Example 148]	7.38
C[C@H](O)C(=O)Nc1cc(Cl)c(Cl)c2c1c1c(n2C(F)F)CCNC(=O)[C@H]1C (single isomer, unassigned) [Example 142]	7.53
Cn1ncc(-c2cc(Cl)c(Cl)c3[nH]c4c(c23)CC(=O)NC[C@H]4CCN2CCOCC2)n1 (single isomer, unassigned)	7.26
Cn1ncc(-c2cc(Cl)c(Cl)c3c2c2c(n3C)C(CC(C)(C)O)CNC(=O)C2)n1 (stereo not drawn)	7.41
CC(C)(O)C[C@@H]1CNC(=O)Cc2c1[nH]c1c(Cl)c(Cl)cc(CC#N)c21 (single isomer, unassigned) [Example 107]	7.90
COCCNc1cc(Cl)c(Cl)c2c1c1c(n2C(F)F)CCNC(=O)C1C (stereo not drawn)	7.45
C[C@@H]1C(=O)NCCc2[nH]c3c(Cl)c(Cl)cc(OCC(F)(F)CO)c3c21 (single isomer, unassigned) [Example 73]	7.95
CC1C(=O)NCCc2[nH]c3c(Cl)c(Cl)cc(NCc4cocn4)c3c21 (stereo in doubt) [Example 58]	7.78
O=C1Cc2c([nH]c3c(Cl)c(Cl)cc(-c4nnc[nH]4)c23)CCN1	6.91
C[C@@H]1C(=O)NCCc2c1c1c(NC(=O)CO)cc(Cl)c(Cl)c1n2CC(F)(F)F (single isomer, unassigned) [Example 186]	7.31
COc1cc(Cl)c(Cl)c2[nH]c3c(c12)C(C)C(=O)NCC3 (stereo not drawn)	6.91
CN(C)CCC1CNC(=O)Cc2c1[nH]c1c(Cl)c(Cl)cc(-c3cnn(C)n3)c21 (stereo not drawn)	7.37
Cn1ncc(-c2cc(Cl)c(Cl)c3[nH]c4c(c23)CC(=O)NCC4)n1	7.69
Cn1ncc(-c2cc(Cl)c(Cl)c3[nH]c4c(c23)CC(=O)NCC4CC(C)(C)O)n1 (stereo not drawn)	7.63
C[C@@H]1C(=O)NCCc2[nH]c3c(Cl)c(Cl)cc(OCC(F)(F)CO)c3c21 (single isomer, unassigned) [Example 74]	5.46
CN(C)C(=O)CC1CNC(=O)Cc2c1[nH]c1c(Cl)c(Cl)cc(CC#N)c21 (stereo not drawn)	7.73
C[C@@H](O)CNc1cc(Cl)c(Cl)c2[nH]c3c(c12)[C@@H](C)C(=O)NCC3 (single isomer, unassigned) [Example 55]	7.33
C[C@H]1C(=O)NCCc2[nH]c3c(Cl)c(Cl)cc(NCC(F)(F)CO)c3c21 (single isomer, unassigned) [Example 69]	6.20
COCC[C@H]1CNC(=O)Cc2c1[nH]c1c(Cl)c(Cl)cc(-c3cnn(C)n3)c21 (single isomer, unassigned)	6.96
Cn1ncc(-c2cc(Cl)c(Cl)c3[nH]c4c(c23)CC(=O)NCC4CCO)n1 (racemic)	7.72
N#CCc1cc(Cl)c(Cl)c2[nH]c3c(c12)CC(=O)NCC3	7.24
O=C1Cc2c([nH]c3c(Cl)c(Cl)cc(-c4nc(CO)no4)c23)CCN1	6.88
C[C@H]1C(=O)NCCc2[nH]c3c(Cl)c(Cl)cc(CC#N)c3c21 (single isomer, unassigned) [Example 89]	7.70
Cn1c2c(c3c(OCC#N)cc(Cl)c(Cl)c31)CC(=O)NC[C@H]2CCO (single isomer, unassigned) [Example 126]	6.00
CC(=O)OCCCOc1cc(Cl)c(Cl)c2[nH]c3c(c12)C(C)C(=O)NCC3 (racemic)	5.04
CCC1CNC(=O)Cc2c1[nH]c1c(Cl)c(Cl)cc(NCCO)c21 (stereo not drawn)	7.64
COCC(=O)Nc1cc(Cl)c(Cl)c2[nH]c3c(c12)C(C)C(=O)NCC3 (stereo not drawn)	7.26
COC(=O)CC1CNC(=O)Cc2c1[nH]c1c(Cl)c(Cl)cc(CC#N)c21 (stereo not drawn)	7.41
N#CCc1cc(Cl)c(Cl)c2c1c1c3n2CCC3CNC(=O)C1 (stereo not drawn)	7.42
Cn1ncc(-c2cc(Cl)c(Cl)c3c2c2c4n3CCC4CNC(=O)C2)n1 (stereo not drawn)	7.83
